Molecular target: human adenosine A2b receptor (Homo sapiens, UniProt P29275)
Sequence (P29275 whole entry): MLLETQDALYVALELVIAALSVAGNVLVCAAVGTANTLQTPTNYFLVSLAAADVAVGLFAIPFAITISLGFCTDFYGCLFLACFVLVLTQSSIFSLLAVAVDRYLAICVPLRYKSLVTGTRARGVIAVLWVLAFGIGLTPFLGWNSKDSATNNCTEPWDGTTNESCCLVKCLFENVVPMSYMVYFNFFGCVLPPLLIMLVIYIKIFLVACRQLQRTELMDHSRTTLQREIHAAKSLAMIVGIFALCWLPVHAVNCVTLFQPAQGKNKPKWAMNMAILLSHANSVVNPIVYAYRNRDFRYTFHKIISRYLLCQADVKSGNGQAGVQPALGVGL
Assay: Cellular in vitro reporter gene test for A2b receptor activity (antagonism of NECA)
Conditions: recombinant CHO-K1 cells, CRE-luciferase reporter, co-incubation with EC50 concentration of NECA, 3 hours
Protocol: The identification of selective antagonists of the human adenosine A2b receptor and the quantification of the efficacy and selectivity of the compounds according to the invention was carried out with the aid of recombinant cell lines for the human adenosine receptors A1, A2a, A2b and A3. These cell lines were originally derived from an ovarepithelial cell of the hamster (Chinese Hamster Ovary, CHO-K1, American Type Culture Collection, Manassas, Va. 20108, USA). […]
pIC50: −log10 of the molar value.
quantity_measured: pIC50

Cc1c(Cn2nc[nH]c2=O)sc2c1c(=O)n(C1CC1)c(=O)n2CCCF = 6.92
COC(=O)N=C1NCCN1Cc1sc2c(c1C)c(=O)n(C1CC1)c(=O)n2CCC(F)(F)F = 8.38
COCCn1c(=O)n(C2CC2(C)C)c(=O)c2c(C)c(CN3CCNC3=O)sc21 (racemic) [Example 103] = 7.68
CCC1CC1n1c(=O)c2c(C)c(CN3CCNC3=O)sc2n(CCOC)c1=O (single isomer, unassigned) [Example 301] = 7.19
Cc1c(CN2CCNC2=O)sc2c1c(=O)n([C@H]1C[C@@H]1C)c(=O)n2CC1CCO1 (single isomer, unassigned) [Example 283] = 7.60

P. Cc1c(CN2CCNC2=O)sc2c1c(=O)n(C1CC1(C)C)c(=O)n2CCC(F)(F)F (single isomer, unassigned) [Example 102]
Q. Cc1c(CN2CCNC2=O)sc2c1c(=O)n(C1CC1C)c(=O)n2CCOC(F)(F)F (racemic) [Example 261]
R. COCCn1c(=O)n([C@H]2C[C@H](OC)C2)c(=O)c2c(C)c(CN3CCNC3=O)sc21
Exercise: Put the entries in order of pIC50, starting with the largest number. Lab note: record answer as labels in requested order.
Key: P, Q, R
(P: 8.14, Q: 7.82, R: 7.09)

====

Molecular target: human adenosine A2b receptor (Homo sapiens)
Test: Cellular in vitro reporter gene test for A2b receptor activity (antagonism of NECA)
Format: cell-based
Set-up: expressed in transfected cells; host or cells: CHO-K1 (Chinese hamster ovary) with CRE-luciferase reporter
Conditions: recombinant CHO-K1 cells, CRE-luciferase reporter, co-incubation with EC50 concentration of NECA, 3 hours
quantity_measured: IC50 (nM)

COCCn1c(=O)n(C2(C(F)(F)F)CC2)c(=O)c2c(C)c(CN3CCNC3=O)sc21 = 310
Cc1c(CN2CCNC2=O)sc2c1c(=O)n(C1CC1C)c(=O)n2CC(F)F (single isomer, unassigned) [Example 236] = 1.2
Cc1c(CN2CCNC2=O)sc2c1c(=O)n(C1(C)CC1)c(=O)n2CC1CCC1 = 5.4
COC(=O)N=C1NCCN1Cc1sc2c(c1C)c(=O)n(C1COC1)c(=O)n2CCC(F)(F)F = 11
Cc1c(CN2CCNC2=O)sc2c1c(=O)n(C1CC1C)c(=O)n2C (single isomer, unassigned) [Example 222] = 1.6

P. Cc1c(Cn2nc[nH]c2=O)sc2c1c(=O)n(C1CC1)c(=O)n2CCOC(F)(F)F
Q. Cc1c(Cn2nc[nH]c2=O)sc2c1c(=O)n(C1CC1)c(=O)n2CCCC(F)(F)F
R. Cc1c(Cn2cc[nH]c2=O)sc2c1c(=O)n(C1CC1C)c(=O)n2CCOC(F)(F)F (single isomer, unassigned) [Example 271]
Exercise: Put the entries in order of IC50, starting with the largest number. Lab note: record answer as labels in requested order.
Key: Q, P, R
(Q: 53 nM, P: 4.4 nM, R: 1.4 nM)
